These data points were gathered from paper PMC6212833.

tested on: Balamuthia mandrillaris (ATCC PRA-291) trophozoites, axenic culture; experiment: primary screen, b score; details: 20 µM
The full ranking holds about 2,000 compounds; the median of “B-score” is about -0.0024, and the highest 2% start at about 4. The list comes from a sample in which the highest values are over-represented; it also holds close analogues and randomly drawn compounds.
Parameter Measured: B-score
Answer with a number only.

Result for Cc1nc(Nc2ncc(C(=O)Nc3c(C)cccc3Cl)s2)cc(N2CCN(CCO)CC2)n1 [756746-L1] , tested on Balamuthia mandrillaris (ATCC PRA-291) trophozoites, axenic culture, B-score: 8.3

Response field B-score (Balamuthia mandrillaris (ATCC PRA-291) trophozoites, axenic culture) for item Oc1ccc(Cl)cc1Cc1cc(Cl)ccc1O : 5.34

Measured on Balamuthia mandrillaris (ATCC PRA-291) trophozoites, axenic culture, N[C@@H]1[C@H]2CN(c3nc4c(cc3F)c(=O)c(C(=O)O)cn4-c3ccc(F)cc3F)C[C@@H]12 has a documented B-score of -1.05

Query C#CC1(O)CCC2C3CCC4=C/C(=N/O)CCC4C3CCC21CC (centres unmarked) on Balamuthia mandrillaris (ATCC PRA-291) trophozoites, axenic culture; B-score returned: -0.44

Given the compound Cc1scc2c1N(C(=O)CN1CCN(C)CC1)c1ccccc1NC2=O and test system Balamuthia mandrillaris (ATCC PRA-291) trophozoites, axenic culture, the measured B-score is -4.76

Entry Cc1nc2ccccc2n1Cc1ccc(Cl)cc1 , Balamuthia mandrillaris (ATCC PRA-291) trophozoites, axenic culture data, B-score value: 6.45

Record Cc1cc(C(C)(C)C)c(O)c(C(C)(C)C)c1 ; system Balamuthia mandrillaris (ATCC PRA-291) trophozoites, axenic culture; B-score = -0.212

B-score for Balamuthia mandrillaris (ATCC PRA-291) trophozoites, axenic culture with input CC(CCc1ccccc1)NC(C)C(O)c1ccc(O)cc1 (centres unmarked) equals 1.37

Param item: CCC(C)n1ncn(-c2ccc(N3CCN(c4ccc(OC[C@H]5CO[C@](Cn6cncn6)(c6ccc(Cl)cc6Cl)O5)cc4)CC3)cc2)c1=O (some centres unmarked) ; param system: Balamuthia mandrillaris (ATCC PRA-291) trophozoites, axenic culture; output B-score: 5.45

Item: CCN(CC)CCOC(=O)C(c1ccccc1)c1ccccc1 | System: Balamuthia mandrillaris (ATCC PRA-291) trophozoites, axenic culture | B-score: -1.55

Param item: CO[C@H]1/C=C/O[C@@]2(C)Oc3c(C)c(O)c4c(O)c(c5c(c4c3C2=O)=NC2(CCN(CC(C)C)CC2)N=5)NC(=O)/C(C)=C\C=C\[C@H](C)[C@H](O)[C@@H](C)[C@@H](O)[C@@H](C)[C@H](OC(C)=O)[C@@H]1C ; param system: Balamuthia mandrillaris (ATCC PRA-291) trophozoites, axenic culture; output B-score: 1.11

Fill in: Balamuthia mandrillaris (ATCC PRA-291) trophozoites, axenic culture B-score for CN/C(=C\[N+](=O)[O-])NCCSCc1csc(CN(C)C)n1 = -0.177

Balamuthia mandrillaris (ATCC PRA-291) trophozoites, axenic culture B-score of Nc1nc(O)c2nc(CNc3ccc(C(=O)N[C@@H](CCC(=O)O)C(=O)O)cc3)cnc2n1 [131189-L3] is -0.599

# CC(C)(O)c1ccccc1CC[C@@H](SCC1(CC(=O)O)CC1)c1cccc(/C=C/c2ccc3ccc(Cl)cc3n2)c1 with Balamuthia mandrillaris (ATCC PRA-291) trophozoites, axenic culture: B-score is -1.02

For C#C[C@]1(O)CC[C@H]2[C@@H]3CCc4cc(O)ccc4[C@H]3CC[C@@]21C on Balamuthia mandrillaris (ATCC PRA-291) trophozoites, axenic culture, measured B-score was 1.29

Field B-score (system: Balamuthia mandrillaris (ATCC PRA-291) trophozoites, axenic culture) for entry CC(C[N+](C)(C)C)OC(N)=O (centres unmarked) = 1.72

Fill in: Balamuthia mandrillaris (ATCC PRA-291) trophozoites, axenic culture B-score for Nc1c2ccccc2nc2ccccc12 = -0.407

Summary line: CN/C(=C\[N+](=O)[O-])NCCSCc1ccc(CN(C)C)o1 , Balamuthia mandrillaris (ATCC PRA-291) trophozoites, axenic culture, reported B-score = 14.6

Entry CC(=O)O[C@@]12CO[C@@H]1C[C@H](O)[C@@]1(C)C(=O)[C@H](O)C3=C(C)[C@@H](OC(=O)[C@H](O)[C@@H](NC(=O)OC(C)(C)C)c4ccccc4)C[C@@](O)([C@@H](OC(=O)c4ccccc4)C12)C3(C)C (some centres unmarked) : B-score on Balamuthia mandrillaris (ATCC PRA-291) trophozoites, axenic culture = -2.24

Tested on Balamuthia mandrillaris (ATCC PRA-291) trophozoites, axenic culture, the item O=C(O)c1ccccc1-c1c2cc(I)c(=O)c(I)c-2oc2c(I)c(O)c(I)cc12 showed B-score equal to 14.8

B-score of CC[C@H]1OC(=O)[C@H](C)[C@@H](O[C@H]2C[C@@](C)(OC)[C@@H](O)[C@H](C)O2)[C@H](C)[C@@H](O[C@@H]2O[C@H](C)C[C@H](N(C)C)[C@H]2O)[C@](C)(O)C[C@@H](C)/C(=N\OCOCCOC)[C@H](C)[C@@H](O)[C@]1(C)O , assay on Balamuthia mandrillaris (ATCC PRA-291) trophozoites, axenic culture, is 0.27

# B-score measured on Balamuthia mandrillaris (ATCC PRA-291) trophozoites, axenic culture for item CC(=O)OC(C)C[N+](C)(C)C (centres unmarked) = 1.98

Tested on Balamuthia mandrillaris (ATCC PRA-291) trophozoites, axenic culture: CN1C(=O)CC(C)(c2ccccc2)C1=O (centres unmarked) . Observed B-score: -0.587

The reported Balamuthia mandrillaris (ATCC PRA-291) trophozoites, axenic culture B-score of Oc1c(Cl)cc(Cl)cc1Sc1cc(Cl)cc(Cl)c1O is -2.1

// returns B-score for CCN[C@H]1C[C@H](C)S(=O)(=O)c2sc(S(N)(=O)=O)cc21 with Balamuthia mandrillaris (ATCC PRA-291) trophozoites, axenic culture; value = -1.38

Balamuthia mandrillaris (ATCC PRA-291) trophozoites, axenic culture B-score of CNC[C@H](O)[C@@H](O)[C@H](O)[C@H](O)CO [757068-L1] is -0.164

Balamuthia mandrillaris (ATCC PRA-291) trophozoites, axenic culture data for CC(=O)[C@H]1CCC2C3CC=C4C[C@@H](O)CC[C@]4(C)C3CC[C@@]21C (some centres unmarked) ; its B-score: -1.35

Tested system Balamuthia mandrillaris (ATCC PRA-291) trophozoites, axenic culture; B-score recorded for O=C(N/N=C/c1ccc([N+](=O)[O-])o1)c1ccc(O)cc1 was -0.646

Kindly note: Balamuthia mandrillaris (ATCC PRA-291) trophozoites, axenic culture, CN1CCN(CC(=O)N2c3ccccc3C(=O)Nc3cccnc32)CC1 , B-score value reported: -0.953

Lab note: compound Cc1nc(Nc2ncc(C(=O)Nc3c(C)cccc3Cl)s2)cc(N2CCN(CCO)CC2)n1 [756746-L2] tested on Balamuthia mandrillaris (ATCC PRA-291) trophozoites, axenic culture; recorded B-score was 1.19

Recorded B-score for Clc1ccc(Cn2c(CN3CCCC3)nc3ccccc32)cc1 on Balamuthia mandrillaris (ATCC PRA-291) trophozoites, axenic culture was 0.738

Fill in: Balamuthia mandrillaris (ATCC PRA-291) trophozoites, axenic culture B-score for Oc1ccc2c3c1O[C@H]1[C@@H](O)CC[C@@]4(O)[C@@H](C2)N(CC2CCC2)CC[C@]314 = 0.0386

Let me check: O=S(=O)(OC[C@H]1O[C@@H](O[C@]2(COS(=O)(=O)[O][Al]([OH])[OH])O[C@H](OS(=O)(=O)[O][Al]([OH])[OH])[C@@H](OS(=O)(=O)[O][Al]([OH])[OH])[C@@H]2OS(=O)(=O)[O][Al]([OH])[OH])[C@H](OS(=O)(=O)[O][Al]([OH])[OH])[C@@H](OS(=O)(=O)[O][Al]([OH])[OH])[C@@H]1OS(=O)(=O)[O][Al]([OH])[OH])[O][Al]([OH])[OH] , system Balamuthia mandrillaris (ATCC PRA-291) trophozoites, axenic culture, measured B-score is -0.0184

Readout B-score for C[C@H](CCC(=O)O)[C@H]1CCC2C3C(CC[C@@]21C)[C@@]1(C)CC[C@@H](O)C[C@H]1C[C@H]3O (some centres unmarked) , test system Balamuthia mandrillaris (ATCC PRA-291) trophozoites, axenic culture, was 0.903

B-score for Balamuthia mandrillaris (ATCC PRA-291) trophozoites, axenic culture with input COc1c(N2CCNC(C)C2)c(F)cc2c(=O)c(C(=O)O)cn(C3CC3)c12 (centres unmarked) equals 0.0884
